The entries below are paired with their reported pEC50.
molecular target: PRMT5-MEP50 enzyme complex (Homo sapiens); construct: Full-length (FL)-PRMT5-MEP50 enzyme complex (recombinant proteins from baculovirus-transfected Sf21 cells: FL-PRMT5; MW=73837 kDa and FL-MEP50; MW=38614); made in house; host or cells: baculovirus-transfected Sf21 cells; test: PRMT5-MEP50 Enzyme Methylation Assay (Version B); type: biochemical; details: first of two EC50s: 7 parameters biphasic model; read-out: Enzyme Methylation Assay Version B (EC50_1)
Sequence (O14744 whole entry): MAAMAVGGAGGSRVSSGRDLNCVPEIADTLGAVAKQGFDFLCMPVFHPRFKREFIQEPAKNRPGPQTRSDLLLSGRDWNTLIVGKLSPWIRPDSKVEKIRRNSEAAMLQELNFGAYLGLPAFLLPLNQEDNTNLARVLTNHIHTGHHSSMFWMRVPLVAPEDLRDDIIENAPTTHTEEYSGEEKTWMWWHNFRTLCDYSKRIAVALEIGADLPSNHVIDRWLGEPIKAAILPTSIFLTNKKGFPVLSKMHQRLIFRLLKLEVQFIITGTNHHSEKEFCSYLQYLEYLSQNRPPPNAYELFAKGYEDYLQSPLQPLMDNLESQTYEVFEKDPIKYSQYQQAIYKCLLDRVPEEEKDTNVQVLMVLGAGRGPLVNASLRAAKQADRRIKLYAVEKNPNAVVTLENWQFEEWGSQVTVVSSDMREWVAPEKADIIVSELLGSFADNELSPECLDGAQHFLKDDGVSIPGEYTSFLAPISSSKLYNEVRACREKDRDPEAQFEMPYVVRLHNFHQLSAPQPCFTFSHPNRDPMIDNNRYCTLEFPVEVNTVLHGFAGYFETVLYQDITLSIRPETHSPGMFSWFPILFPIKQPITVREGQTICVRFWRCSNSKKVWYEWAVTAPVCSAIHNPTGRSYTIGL
Sequence (Q9BQA1 whole entry partner): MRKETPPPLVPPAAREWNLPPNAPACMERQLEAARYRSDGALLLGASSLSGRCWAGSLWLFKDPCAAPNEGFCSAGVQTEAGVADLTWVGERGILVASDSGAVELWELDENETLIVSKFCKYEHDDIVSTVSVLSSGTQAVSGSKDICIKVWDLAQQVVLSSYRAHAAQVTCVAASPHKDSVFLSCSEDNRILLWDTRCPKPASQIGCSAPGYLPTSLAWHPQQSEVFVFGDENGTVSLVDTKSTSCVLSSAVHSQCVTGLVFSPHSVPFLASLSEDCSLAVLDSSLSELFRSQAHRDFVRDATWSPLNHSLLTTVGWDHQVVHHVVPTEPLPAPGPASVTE
pEC50: −log10 of the molar value.

Guide cases for pEC50, answers given:
Entry CC1OC(=O)Nc2cc(C(=O)N3CC[C@@H](N4CCc5ccccc5C4)[C@H](O)C3)ccc21 (single isomer, unassigned) [Example 93] , PRMT5-MEP50 enzyme complex (Homo sapiens) data, pEC50 value: ~7.74

Entry O=C(c1ccc(OCC(F)(F)F)nc1)N1CC[C@@H](N2CCc3ccccc3C2)[C@H](O)C1 [Example 44] , PRMT5-MEP50 enzyme complex (Homo sapiens) data, pEC50 value: ~6.51

Here is the next item to consider.
Entry CC(=O)N1CCC(Nc2nccc(C(=O)N3CC[C@H](N4CCc5ccccc5C4)[C@@H](O)C3)c2F)C(F)(F)C1 (single isomer, unassigned) [Example 14] , PRMT5-MEP50 enzyme complex (Homo sapiens) data, pEC50 value: ~7.70

###

molecular target: PRMT5 (Homo sapiens); construct: seeded with 4000 MCF-7 cells in 30 μl media; endogenous in cells; experiment: PRMT5 Cell Target Engagement (TE) Assay; details: MCF-7 cells, treated for 3 days, symmetric dimethylation of arginine (SDMA) by high content imaging
readout-name: EC50 (nM)

Reported EC50 for CC(=O)N1C[C@H]2CC[C@@H](C1)C2Nc1cc(C(=O)N2CC[C@H](N3CCc4ccccc4C3)[C@@H](O)C2)c(F)cn1 (stereo partly shown) was 33

Reported EC50 for CC(=O)N1CCC(Nc2nccc(C(=O)N3CC[C@H](N4CCc5ccccc5C4)[C@@H](O)C3)c2F)CC1 was 54

P: Cc1cnc2nc(C(=O)N3CC[C@H](N4CCc5ccccc5C4)[C@@H](O)C3)cn2c1
Q: O=C(c1cc(NC2CCN(C(=O)C3CC3)CC2)ncc1F)N1CC[C@H](N2CCc3ccccc3C2)[C@@H](O)C1
R: Cc1nc(C)c(-c2cnc3nc(C(=O)N4CC[C@H](N5CCc6ccccc6C5)[C@@H](O)C4)cn3c2)s1
S: O=C(c1cn2cc(Br)cnc2n1)N1CC[C@H](N2CCc3ccccc3C2)[C@@H](O)C1
List from greatest to least EC50. Answer format: the labels, in the requested order.
P, S, Q, R
(P: 37 nM, S: 10 nM, Q: 3.8 nM, R: 1.8 nM)

###

The entries below are paired with their reported EC50.
target: PRMT5 (Homo sapiens, UniProt O14744); construct: seeded with 4000 MCF-7 cells in 30 μl media; endogenous in cells; assay: PRMT5 Cell Target Engagement (TE) Assay; details: MCF-7 cells, treated for 3 days, symmetric dimethylation of arginine (SDMA) by high content imaging

Guide cases for EC50, answers given:
Reported EC50 for Cc1ccc2c(c1)CCN([C@H]1CCN(C(=O)c3ccc(OCC(F)(F)F)nc3)C[C@@H]1O)C2 was > 10 µM

Reported EC50 for O=C(c1ccc(C(=O)N2C3CCC2COC3)cc1)N1CC[C@@H](N2CCc3cc(F)ccc3C2)[C@H](O)C1 was > 10 µM

Continuing:
Reported EC50 for O=C(c1ccnc(C(F)F)c1)N1CC[C@H](N2CCc3ccccc3C2)[C@@H](O)C1 was > 10 µM
